relative viability reference
Tested on: NCI-H1437
Method notes: relative viability (nuclei count vs DMSO), 5 days (fraction); higher = more cells survive
Condition: first compound 0.005 µM
Lab note: jot the number down without any unit.

Example entries and their recorded answers appear below.
Compound	Measurement label	Observed value
Nc1ccn([C@@H]2O[C@H](CO)[C@@H](O)[C@@H]2O)c(=O)n1 [Cytarabine] + Nc1ncn([C@H]2C[C@H](O)[C@@H](CO)O2)c(=O)n1 [Decitabine] (partner 2 µM)	relative viability	0.498
Nc1ccn([C@@H]2O[C@H](CO)[C@@H](O)[C@@H]2O)c(=O)n1 [Cytarabine] + CC1(C)CCC(c2ccc(Cl)cc2)=C(CN2CCN(c3ccc(C(=O)NS(=O)(=O)c4ccc(N[C@H](CCN5CCOCC5)CSc5ccccc5)c(S(=O)(=O)C(F)(F)F)c4)cc3)CC2)C1 [Navitoclax] (partner 0.5 µM)	relative viability	0.875
Nc1ccn([C@@H]2O[C@H](CO)[C@@H](O)[C@@H]2O)c(=O)n1 [Cytarabine] + CC(C)C[C@H](NC(=O)[C@H](Cc1ccccc1)NC(=O)c1cnccn1)B(O)O [Bortezomib] (partner 0.002 µM)	relative viability	0.334
COc1cc2nccc(Oc3ccc(NC(=O)Nc4cc(C)on4)c(Cl)c3)c2cc1OC [Tivozanib] + CC(C)C[C@H](NC(=O)[C@H](Cc1ccccc1)NC(=O)c1cnccn1)B(O)O [Bortezomib] (partner 0.002 µM)	relative viability	0.487

Now turn to the next compound.
Request: Sample Nc1ccn([C@@H]2O[C@H](CO)[C@@H](O)[C@@H]2O)c(=O)n1 [Cytarabine] + Cc1cc(Nc2cc(N3CCN(C)CC3)nc(Sc3ccc(NC(=O)C4CC4)cc3)n2)n[nH]1 [Tozasertib] (partner 0.1 µM) — what was its relative viability?
Response: 0.295

----------
relative viability reference
Test system: NCI-H647
Method notes: relative viability (nuclei count vs DMSO), 5 days (fraction); higher = more cells survive
Condition: first compound 0.4 µM
Lab note: jot the number down without any unit.

Example entries and their recorded answers appear below.
Compound	Target or system	relative viability
Cc1sc2c(c1C)C(c1ccc(Cl)cc1)=N[C@@H](CC(=O)OC(C)(C)C)c1nnc(C)n1-2 [JQ1] + Cc1nc(Nc2ncc(C(=O)Nc3c(C)cccc3Cl)s2)cc(N2CCN(CCO)CC2)n1 [Dasatinib] (partner 0.075 µM)	NCI-H647	0.124
Cc1sc2c(c1C)C(c1ccc(Cl)cc1)=N[C@@H](CC(=O)OC(C)(C)C)c1nnc(C)n1-2 [JQ1] + CC1(C)CCC(c2ccc(Cl)cc2)=C(CN2CCN(c3ccc(C(=O)NS(=O)(=O)c4ccc(N[C@H](CCN5CCOCC5)CSc5ccccc5)c(S(=O)(=O)C(F)(F)F)c4)cc3)CC2)C1 [Navitoclax] (partner 0.5 µM)	NCI-H647	0.498
Cc1sc2c(c1C)C(c1ccc(Cl)cc1)=N[C@@H](CC(=O)OC(C)(C)C)c1nnc(C)n1-2 [JQ1] + C[C@]1(O)C[C@@H](c2nc(-c3ccc4ccc(-c5ccccc5)nc4c3)c3c(N)nccn32)C1 [Linsitinib] (partner 1 µM)	NCI-H647	0.568
Cc1sc2c(c1C)C(c1ccc(Cl)cc1)=N[C@@H](CC(=O)OC(C)(C)C)c1nnc(C)n1-2 [JQ1] + Nc1nc2[nH]cc(CCc3ccc(C(=O)N[C@@H](CCC(=O)O)C(=O)O)cc3)c2c(=O)[nH]1 [Pemetrexed] (partner 0.2 µM)	NCI-H647	0.105
Cc1sc2c(c1C)C(c1ccc(Cl)cc1)=N[C@@H](CC(=O)OC(C)(C)C)c1nnc(C)n1-2 [JQ1] + NC(=O)Nc1cc(-c2cccc(F)c2)sc1C(=O)N[C@H]1CCCNC1 [AZD7762] (partner 0.2 µM)	NCI-H647	0.25
Cc1sc2c(c1C)C(c1ccc(Cl)cc1)=N[C@@H](CC(=O)OC(C)(C)C)c1nnc(C)n1-2 [JQ1] + CS(=O)(=O)N1CCN(Cc2cc3nc(-c4cccc5[nH]ncc45)nc(N4CCOCC4)c3s2)CC1 [Pictilisib] (partner 1 µM)	NCI-H647	0.305
Cc1sc2c(c1C)C(c1ccc(Cl)cc1)=N[C@@H](CC(=O)OC(C)(C)C)c1nnc(C)n1-2 [JQ1] + CC(C)C[C@H](NC(=O)[C@H](Cc1ccccc1)NC(=O)c1cnccn1)B(O)O [Bortezomib] (partner 0.002 µM)	NCI-H647	0.346

Now turn to the next compound.
Request: Sample Cc1sc2c(c1C)C(c1ccc(Cl)cc1)=N[C@@H](CC(=O)OC(C)(C)C)c1nnc(C)n1-2 [JQ1] + COc1cccc2cc(-c3nc([C@H]4CC[C@H](C(=O)O)CC4)n4ncnc(N)c34)[nH]c12 [OSI-027] (partner 0.5 µM) — what was its relative viability?
Response: 0.388

----------
System: HCC-78
Method notes: relative viability (nuclei count vs DMSO), 5 days (fraction); higher = more cells survive
Condition: first compound 0.04 µM
Measurement label: relative viability

Example entries and their recorded answers appear below.
Compound	relative viability
Cc1sc2c(c1C)C(c1ccc(Cl)cc1)=N[C@@H](CC(=O)OC(C)(C)C)c1nnc(C)n1-2 [JQ1] + CC(=O)c1c(C)c2cnc(Nc3ccc(N4CCNCC4)cn3)nc2n(C2CCCC2)c1=O [Palbociclib] (partner 0.5 µM)	0.489
Cc1sc2c(c1C)C(c1ccc(Cl)cc1)=N[C@@H](CC(=O)OC(C)(C)C)c1nnc(C)n1-2 [JQ1] + CC(=O)Nc1cccc(-n2c(=O)n(C3CC3)c(=O)c3c(Nc4ccc(I)cc4F)n(C)c(=O)c(C)c32)c1 [Trametinib] (partner 0.02 µM)	0.791
Cc1sc2c(c1C)C(c1ccc(Cl)cc1)=N[C@@H](CC(=O)OC(C)(C)C)c1nnc(C)n1-2 [JQ1] + CS(=O)(=O)N1CCN(Cc2cc3nc(-c4cccc5[nH]ncc45)nc(N4CCOCC4)c3s2)CC1 [Pictilisib] (partner 1 µM)	0.212

Request: Sample Cc1sc2c(c1C)C(c1ccc(Cl)cc1)=N[C@@H](CC(=O)OC(C)(C)C)c1nnc(C)n1-2 [JQ1] + CC(C)C[C@H](NC(=O)[C@H](Cc1ccccc1)NC(=O)c1cnccn1)B(O)O [Bortezomib] (partner 0.002 µM) — what was its relative viability?
Response: 0.53

----------
Tested on: NCI-H650
Method notes: relative viability (nuclei count vs DMSO), 5 days (fraction); higher = more cells survive
Condition: first compound 5 µM
relative viability reference

Example entries and their recorded answers appear below.
Compound	relative viability
O=C(O)CCCCC(CCSCc1ccccc1)SCc1ccccc1 (centres undefined) [CPI-613] + CS(=O)(=O)CCNCc1ccc(-c2ccc3ncnc(Nc4ccc(OCc5cccc(F)c5)c(Cl)c4)c3c2)o1 [Lapatinib] (partner 2 µM)	1.05
O=C(O)CCCCC(CCSCc1ccccc1)SCc1ccccc1 (centres undefined) [CPI-613] + O=C(CCCCCCC(=O)Nc1ccccc1)NO [Vorinostat] (partner 1 µM)	0.447
O=C(O)CCCCC(CCSCc1ccccc1)SCc1ccccc1 (centres undefined) [CPI-613] + C[C@@H](Oc1cc(-c2cnn(C3CCNCC3)c2)cnc1N)c1c(Cl)ccc(F)c1Cl [Crizotinib] (partner 1 µM)	0.665

Request: What measured relative viability is associated with O=C(O)CCCCC(CCSCc1ccccc1)SCc1ccccc1 (centres undefined) [CPI-613] + C[C@]1(O)C[C@@H](c2nc(-c3ccc4ccc(-c5ccccc5)nc4c3)c3c(N)nccn32)C1 [Linsitinib] (partner 1 µM) on NCI-H650?
Response: 0.905

----------
System: NCI-H1975
Method notes: relative viability (nuclei count vs DMSO), 5 days (fraction); higher = more cells survive
Condition: first compound 1.265 µM
# note: boundary value 0.3 maps to not satisfied; relative viability below it maps to satisfied

Past entries and their recorded results:
Compound	Group
Cc1sc2c(c1C)C(c1ccc(Cl)cc1)=N[C@@H](CC(=O)OC(C)(C)C)c1nnc(C)n1-2 [JQ1] + NC(=O)Nc1cc(-c2cccc(F)c2)sc1C(=O)N[C@H]1CCCNC1 [AZD7762] (partner 0.2 µM)	not satisfied
Cc1sc2c(c1C)C(c1ccc(Cl)cc1)=N[C@@H](CC(=O)OC(C)(C)C)c1nnc(C)n1-2 [JQ1] + Cc1nc(NC(=O)N2CCC[C@H]2C(N)=O)sc1-c1ccnc(C(C)(C)C(F)(F)F)c1 [Alpelisib] (partner 2 µM)	not satisfied
Cc1sc2c(c1C)C(c1ccc(Cl)cc1)=N[C@@H](CC(=O)OC(C)(C)C)c1nnc(C)n1-2 [JQ1] + Nc1ncn([C@H]2C[C@H](O)[C@@H](CO)O2)c(=O)n1 [Decitabine] (partner 2 µM)	satisfied

Request: Does the reported relative viability of the following compound sit strictly below 0.3? Cc1sc2c(c1C)C(c1ccc(Cl)cc1)=N[C@@H](CC(=O)OC(C)(C)C)c1nnc(C)n1-2 [JQ1] + O=C(c1cc(Cc2n[nH]c(=O)c3ccccc23)ccc1F)N1CCN(C(=O)C2CC2)CC1 [Olaparib] (partner 8 µM)
Response: satisfied

Origin of values: the supplement of paper PMC10307832
